Biological target: T1, CD81 (UniProt P60033 1-236, limits assumed)
T1 construct: whole, on cells; also called CD81 receptor
T1 sequence (looked up): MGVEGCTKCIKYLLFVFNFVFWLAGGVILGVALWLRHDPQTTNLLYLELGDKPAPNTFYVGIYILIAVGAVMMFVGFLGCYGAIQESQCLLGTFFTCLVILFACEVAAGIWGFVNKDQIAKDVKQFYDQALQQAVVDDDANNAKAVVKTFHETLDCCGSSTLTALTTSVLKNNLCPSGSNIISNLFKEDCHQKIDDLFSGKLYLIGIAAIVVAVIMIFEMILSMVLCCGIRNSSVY
Assay: cell ELISA;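 further: antibody binding to HuH7 cells expressing CD81 versus a CD81-negative HuH7 control line, bound antibody detected by secondary reagent, absorbance at 450 nm with 620 nm reference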
quantity: ELISA data
One number for each entry.

// worked examples, ELISA data included
>>> test_value("CD81K04 HC JA_GG-14-hVH_1_69 / LC CD81K04 (antibody, V domains shown, human constant region) VH: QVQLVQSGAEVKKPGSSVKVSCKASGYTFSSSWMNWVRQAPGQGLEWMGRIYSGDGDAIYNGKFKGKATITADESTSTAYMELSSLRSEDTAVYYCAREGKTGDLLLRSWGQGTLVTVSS VL: DIVLTQSPASLSVSLGQRATISCRASKSVSTSIYSYMHWYQQKPGQPPKLLIKYASYLESGVPARFSGSGSGTDFTLNIHPVEEEDAATYYCEHSREFPFTFGTGTKLEIK")
0.996
>>> test_value("CD81K04 HC K04_JA_GG-17-hVH_1_3 / LC JA_GG-09-hVK_4_1 (antibody, V domains shown, human constant region) VH: QVQLVQSGAEVKKPGASVKVSCKASGYTFSSSWMNWVRQAPGQRLEWMGRIYSGDGDTIYSQKFQGRVTITADTSASTAYMELSSLRSEDTAVYYCAREGKTGDLLLRSWGQGTLVTVSS VL: DIVMTQSPDSLAVSLGERATINCKSSKSVSTSIYSYMHWYQQKPGQPPKLLIKYASTRESGVPDRFSGSGSGTDFTLTISSLQAEDVAVYYCEHSREFPFTFGQGTKLEIK")
0.911
>>> test_value("CD81K04 HC JA_GG-16-hVH_1_3 / LC GG-04-hVK_4_1 (antibody, V domains shown, human constant region) VH: QVQLVQSGAEVKKPGASVKVSCKASGYTFSSSWMNWVRQAPGQGLEWMGRIYSGDGDAIYNGKFKGRVTITADTSASTAYMELSSLRSEDTAVYYCAREGKTGDLLLRSWGQGTLVTVSS VL: DIVMTQSPDSLAVSLGERATINCKSSKSVSTSIYSYLAWYQQKPGQPPKLLIYYASTRESGVPDRFSGSGSGTDFTLTISSLQAEDVAVYYCQHSREFPYTFGQGTKLEIK")
0.263
>>> test_value("CD81K04 HC GG-03-hVH_1_69 / LC GG-05-hVK_3_11 (antibody, V domains shown, human constant region) VH: QVQLVQSGAEVKKPGSSVKVSCKASGYTFSSSWMNWVRQAPGQGLEWMGRIYSGDGDAIYAQKFQGRVTITADESTSTAYMELSSLRSEDTAVYYCAREGKTGDLLLRSWGQGTLVTVSS VL: EIVLTQSPATLSLSPGERATLSCRASKSVSTSIYSYLHWYQQKPGQAPRLLIYYASNRETGIPARFSGSGSGTDFTLTISSLEPEDFAVYYCQHSREFPFTFGQGTKLEIK")
0.204

Would you kindly look at the next entry?
Which ELISA data is listed for CD81K04 HC GG-01-hVH_5_51 / LC GG-03-hVK_4_1 (antibody, V domains shown, human constant region) VH: EVQLVQSGAEVKKPGESLKISCKGSGYSFSSSWMNWVRQMPGKGLEWMGRIYSGDGDAIYSPSFQGQVTISADKSISTAYLQLSSLKASDTAMYYCAREGKTGDLLLRSWGQGTLVTVSS VL: DIVMTQSPDSLAVSLGERATINCKSSKSVSTSIYSYLAWYQQKPGQPPKLLIYYASYRESGVPDRFSGSGSGTDFTLTISSLQAEDVAVYYCQHSREFPFTFGQGTKLEIK ?
0.129
